# SYSTEM_NAME: Fibroblast growth factor receptor 1 (Homo sapiens)
# Sequence (P11362 whole entry): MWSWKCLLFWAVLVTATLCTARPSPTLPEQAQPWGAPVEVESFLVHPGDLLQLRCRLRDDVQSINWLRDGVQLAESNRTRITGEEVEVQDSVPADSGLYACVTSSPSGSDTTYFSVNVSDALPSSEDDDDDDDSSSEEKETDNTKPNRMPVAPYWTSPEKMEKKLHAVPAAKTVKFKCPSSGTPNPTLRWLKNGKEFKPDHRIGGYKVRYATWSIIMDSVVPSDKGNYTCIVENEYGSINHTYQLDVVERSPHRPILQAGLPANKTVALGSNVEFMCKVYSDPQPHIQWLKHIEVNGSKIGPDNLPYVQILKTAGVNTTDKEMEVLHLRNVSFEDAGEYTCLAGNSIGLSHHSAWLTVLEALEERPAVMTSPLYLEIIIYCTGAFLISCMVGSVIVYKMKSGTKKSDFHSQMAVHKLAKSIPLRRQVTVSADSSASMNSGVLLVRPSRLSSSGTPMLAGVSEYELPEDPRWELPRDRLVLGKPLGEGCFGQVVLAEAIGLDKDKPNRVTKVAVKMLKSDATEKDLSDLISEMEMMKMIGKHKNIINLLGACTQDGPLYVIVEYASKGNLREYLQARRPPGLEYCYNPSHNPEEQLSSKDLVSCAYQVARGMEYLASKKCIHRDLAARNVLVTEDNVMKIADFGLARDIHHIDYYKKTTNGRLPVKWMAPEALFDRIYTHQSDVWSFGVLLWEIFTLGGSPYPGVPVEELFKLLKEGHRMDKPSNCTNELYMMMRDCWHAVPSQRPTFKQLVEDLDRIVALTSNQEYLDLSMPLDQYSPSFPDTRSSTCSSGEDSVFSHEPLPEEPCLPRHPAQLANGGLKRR
ASSAY_METRIC: IC50 (µM)

[
  {
    "COMPOUND": "COc1ccc2cc(-c3c(-c4ccncc4)nc(-c4ccc([S+](C)[O-])cc4C)n3C)ccc2c1 (stereo unspecified)",
    "TEST_VALUE": 9.7
  }
]

* * *

# SYSTEM_NAME: Vascular endothelial growth factor receptor 2 (Homo sapiens, UniProt P35968)
# Sequence (P35968 whole entry): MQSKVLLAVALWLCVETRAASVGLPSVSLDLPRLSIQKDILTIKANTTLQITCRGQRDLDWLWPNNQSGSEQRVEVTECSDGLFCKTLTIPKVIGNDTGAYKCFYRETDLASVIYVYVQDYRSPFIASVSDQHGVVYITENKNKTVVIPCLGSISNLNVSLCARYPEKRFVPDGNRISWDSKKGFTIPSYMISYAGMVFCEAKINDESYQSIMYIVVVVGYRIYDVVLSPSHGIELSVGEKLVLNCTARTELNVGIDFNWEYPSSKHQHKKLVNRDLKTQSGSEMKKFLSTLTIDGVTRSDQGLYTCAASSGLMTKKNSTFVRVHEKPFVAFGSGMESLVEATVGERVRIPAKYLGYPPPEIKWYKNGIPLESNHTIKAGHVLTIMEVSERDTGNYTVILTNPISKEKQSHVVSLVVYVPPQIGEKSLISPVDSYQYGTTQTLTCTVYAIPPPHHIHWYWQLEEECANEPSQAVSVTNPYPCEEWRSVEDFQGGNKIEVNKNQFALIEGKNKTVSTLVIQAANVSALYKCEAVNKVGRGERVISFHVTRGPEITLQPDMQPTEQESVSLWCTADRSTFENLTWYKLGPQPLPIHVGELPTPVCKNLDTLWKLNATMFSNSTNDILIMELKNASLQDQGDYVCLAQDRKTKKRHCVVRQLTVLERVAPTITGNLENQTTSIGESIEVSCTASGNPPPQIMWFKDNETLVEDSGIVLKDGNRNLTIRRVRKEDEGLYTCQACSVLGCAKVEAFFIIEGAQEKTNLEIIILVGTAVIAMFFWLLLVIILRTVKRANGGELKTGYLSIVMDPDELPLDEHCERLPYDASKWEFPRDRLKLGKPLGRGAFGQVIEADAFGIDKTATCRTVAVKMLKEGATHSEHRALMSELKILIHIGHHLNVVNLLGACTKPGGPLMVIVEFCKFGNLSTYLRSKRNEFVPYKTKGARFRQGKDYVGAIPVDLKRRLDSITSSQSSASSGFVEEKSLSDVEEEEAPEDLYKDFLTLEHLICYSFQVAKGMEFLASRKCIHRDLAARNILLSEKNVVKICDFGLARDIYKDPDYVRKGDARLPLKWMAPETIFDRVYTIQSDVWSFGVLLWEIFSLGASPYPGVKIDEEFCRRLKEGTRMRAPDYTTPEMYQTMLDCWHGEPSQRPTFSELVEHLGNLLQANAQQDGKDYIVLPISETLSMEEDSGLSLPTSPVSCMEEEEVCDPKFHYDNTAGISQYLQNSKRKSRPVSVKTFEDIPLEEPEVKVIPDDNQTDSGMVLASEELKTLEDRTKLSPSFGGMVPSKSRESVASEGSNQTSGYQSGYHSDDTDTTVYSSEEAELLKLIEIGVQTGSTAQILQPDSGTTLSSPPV
pIC50: −log10 of the molar value.

[
  {
    "COMPOUND": "COc1ccc2cc(-c3c(-c4ccncc4)nc(-c4ccc([S+](C)[O-])cc4C)n3C)ccc2c1 (stereo unspecified)",
    "pIC50": 5.82
  }
]
